Reported Kd against Ephrin type-B receptor 2 (Homo sapiens), gathered from multiple publications, appears below.
Attribute measured: Kd (µM)

1) CC(C)(C)n1nc(-c2ccc(Cl)cc2)c2c(N)ncnc21 :: 36.5
2) CNC(=O)CN1CCC(Oc2cc3c(Nc4cccc(Cl)c4F)ncnc3cc2OC)CC1 :: 2.28
3) Cc1ccc(O)cc1Nc1ccnc(Nc2cccc(C(N)=O)c2)n1 :: 0.007

[a] COc1cc2ncnc(Nc3cccc(Br)c3)c2cc1OC
[b] CNc1ccc2c(Nc3cccc(Br)c3)ncnc2c1
q: When a and b are compared, which has the higher number for Kd? Field: selected label. Fill in the label of the entry you choose.
a: b
